Test Target: Nav1.7 (or SCN9A) channel (Homo sapiens, UniProt Q15858)
Construct: expressed in transfected cells
Sequence (Q15858 whole entry): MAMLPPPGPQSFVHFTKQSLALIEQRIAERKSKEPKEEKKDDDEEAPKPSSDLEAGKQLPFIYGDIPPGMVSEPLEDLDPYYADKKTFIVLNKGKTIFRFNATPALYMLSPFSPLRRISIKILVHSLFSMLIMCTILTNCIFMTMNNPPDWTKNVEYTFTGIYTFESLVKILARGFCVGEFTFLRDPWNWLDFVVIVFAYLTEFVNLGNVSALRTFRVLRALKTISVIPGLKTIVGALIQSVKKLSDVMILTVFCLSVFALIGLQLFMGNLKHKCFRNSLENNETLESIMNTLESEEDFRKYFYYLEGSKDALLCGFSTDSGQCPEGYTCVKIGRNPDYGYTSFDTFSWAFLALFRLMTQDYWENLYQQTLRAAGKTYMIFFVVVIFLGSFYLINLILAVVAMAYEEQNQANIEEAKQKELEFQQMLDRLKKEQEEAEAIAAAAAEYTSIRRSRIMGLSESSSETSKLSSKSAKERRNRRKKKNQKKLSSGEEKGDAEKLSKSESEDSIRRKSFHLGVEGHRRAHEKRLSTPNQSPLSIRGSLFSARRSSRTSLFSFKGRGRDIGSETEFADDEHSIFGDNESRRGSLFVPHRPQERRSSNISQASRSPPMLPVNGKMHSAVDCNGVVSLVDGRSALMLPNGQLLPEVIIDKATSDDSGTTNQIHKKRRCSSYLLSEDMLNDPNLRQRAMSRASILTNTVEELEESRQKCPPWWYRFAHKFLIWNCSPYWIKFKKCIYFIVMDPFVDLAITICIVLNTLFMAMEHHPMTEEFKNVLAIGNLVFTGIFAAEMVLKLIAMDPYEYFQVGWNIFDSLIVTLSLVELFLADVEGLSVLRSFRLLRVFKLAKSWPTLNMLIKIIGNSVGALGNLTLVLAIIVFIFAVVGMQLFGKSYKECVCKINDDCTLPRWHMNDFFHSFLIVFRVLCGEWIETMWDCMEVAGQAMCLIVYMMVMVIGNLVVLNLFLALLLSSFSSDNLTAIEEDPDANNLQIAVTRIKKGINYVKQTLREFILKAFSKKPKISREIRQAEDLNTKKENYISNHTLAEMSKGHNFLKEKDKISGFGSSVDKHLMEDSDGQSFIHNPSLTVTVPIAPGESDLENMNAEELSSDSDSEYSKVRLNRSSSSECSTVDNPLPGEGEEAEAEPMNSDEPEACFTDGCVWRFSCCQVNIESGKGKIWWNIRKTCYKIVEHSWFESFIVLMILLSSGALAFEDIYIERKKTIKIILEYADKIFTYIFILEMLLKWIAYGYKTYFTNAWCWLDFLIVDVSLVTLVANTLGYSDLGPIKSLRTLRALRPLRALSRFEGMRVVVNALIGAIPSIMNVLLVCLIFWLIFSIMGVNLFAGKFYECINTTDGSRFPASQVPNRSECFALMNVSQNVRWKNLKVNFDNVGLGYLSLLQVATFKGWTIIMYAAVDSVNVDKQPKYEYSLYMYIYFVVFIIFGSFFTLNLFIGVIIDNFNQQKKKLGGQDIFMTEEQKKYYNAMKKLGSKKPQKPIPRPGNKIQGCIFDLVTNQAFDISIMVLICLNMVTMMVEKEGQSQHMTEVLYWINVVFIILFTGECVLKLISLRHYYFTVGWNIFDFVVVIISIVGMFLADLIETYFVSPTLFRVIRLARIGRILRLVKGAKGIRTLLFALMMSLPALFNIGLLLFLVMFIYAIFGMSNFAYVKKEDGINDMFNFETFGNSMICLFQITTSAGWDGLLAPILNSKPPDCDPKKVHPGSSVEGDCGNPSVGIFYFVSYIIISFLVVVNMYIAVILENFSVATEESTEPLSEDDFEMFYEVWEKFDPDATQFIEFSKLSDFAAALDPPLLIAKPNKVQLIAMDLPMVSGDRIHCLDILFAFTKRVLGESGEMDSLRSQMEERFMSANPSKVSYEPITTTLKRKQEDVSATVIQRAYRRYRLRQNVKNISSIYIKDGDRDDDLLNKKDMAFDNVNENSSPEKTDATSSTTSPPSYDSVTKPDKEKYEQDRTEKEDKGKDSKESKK
Measurement Notes: Nav1.7 (hSCN9A) block in HEK cells, PatchXpress 7000 automated electrophysiology, estimated IC50 (EIC50)
Type: cell-based
Protocol Conditions: PatchXpress assay; HEK cells stably transfected with hSCN9A, voltage-clamped at V1/2 of inactivation
Description: The ability of the compounds of formula (I) to block the Nav1.7 (or SCN9A) channel were measured using the assay described below. […] HEK cells stably transfected with hSCN9A were viewed under Hoffman contrast optics and placed in front of an array of flow pipes emitting either control or compound-containing extracellular solutions. […] The voltage-dependence of inactivation was determined by applying a series of depolarizing prepulses (8 sec long in 10 mV increments) from a negative holding potential. […]
Quick reference: IC50 of the listed items.
The reply should contain only the number, in nM.

Solved cases below.
| Compound | Test Target | Endpoint Unit | IC50 |
| --- | --- | --- | --- |
| O=C(NS(=O)(=O)C1CC1)c1cc(Cl)c(Oc2cnc(C3CC3)c(Cl)c2)cc1F | Nav1.7 (or SCN9A) channel (Homo sapiens, UniProt Q15858) | nM | 50 |
| CS(=O)(=O)NC(=O)c1cc(F)c(Oc2cnc(N3CCC(F)C3)c(Cl)c2)cc1F (centres unmarked) | Nav1.7 (or SCN9A) channel (Homo sapiens, UniProt Q15858) | nM | 640 |
| CC(C)c1ncc(Oc2cc(F)c(C(=O)NS(C)(=O)=O)cc2Cl)cc1Cl | Nav1.7 (or SCN9A) channel (Homo sapiens, UniProt Q15858) | nM | 290 |

Prompt: Provide IC50, system Nav1.7 (or SCN9A) channel (Homo sapiens, UniProt Q15858), entry `COc1cc(Oc2cnc(OC(C)C)c(Cl)c2)ccc1C(=O)NS(C)(=O)=O`
Response: 7200

Prompt: Jot down IC50 (Nav1.7 (or SCN9A) channel (Homo sapiens, UniProt Q15858)) of `CS(=O)(=O)NC(=O)c1cc(Cl)c(Oc2cnc(OC(F)F)c(Cl)c2)cc1F` .
Response: 180

Provenance of the data: patent US8592629B2
